Cited source for all entries: ChEMBL document CHEMBL1129168

Tested on: Human alphaherpesvirus 3
test.summary: Compound was tested in vitro for antiviral activity against Varicella zoster virus (VZV) in ellen cells.
Format: functional, organism-based
attribute.measured: IC50 (mg/L)
One number for each entry, in mg/L.

Past entries and their recorded results:
1. Nc1nc(O)c2ncn(OCC(CO)CCP(=O)(O)O)c2n1 (stereo unspecified)
5
2. Nc1nc(N)c2ncn(OCCCCP(=O)(O)O)c2n1
17
3. Nc1nc(N)c2ncn(OCC(CO)CCP(=O)(O)O)c2n1 (stereo unspecified)
17

Please turn your attention to the following entry.
Problem: Consider the compound Nc1nc(O)c2ncn(OCCCCP(=O)(O)O)c2n1 . State its measured IC50.
Solution: 6
